- target.or.system: human α7 nAChR (Homo sapiens, UniProt P36544)
- Construct: expressed in transfected cells; host or cells: GH4C1 cells (rat pituitary, ATCC CCL-82.2)
- Sequence (P36544 23-502): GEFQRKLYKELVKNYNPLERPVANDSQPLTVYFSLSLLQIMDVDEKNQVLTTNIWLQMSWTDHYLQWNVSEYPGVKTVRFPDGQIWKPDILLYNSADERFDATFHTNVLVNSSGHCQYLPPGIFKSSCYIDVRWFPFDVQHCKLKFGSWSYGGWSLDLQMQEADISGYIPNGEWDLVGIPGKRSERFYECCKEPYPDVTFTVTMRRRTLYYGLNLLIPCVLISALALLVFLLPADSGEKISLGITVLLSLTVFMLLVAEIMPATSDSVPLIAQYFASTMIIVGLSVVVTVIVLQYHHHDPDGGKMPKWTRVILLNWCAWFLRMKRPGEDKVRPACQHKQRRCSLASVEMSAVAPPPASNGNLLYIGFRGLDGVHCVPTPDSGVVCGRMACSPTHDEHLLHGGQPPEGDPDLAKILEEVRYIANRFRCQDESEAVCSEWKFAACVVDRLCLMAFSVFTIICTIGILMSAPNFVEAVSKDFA
- protocol.description: Evaluation of PAM activity with human α7 nACh receptor stably expressing cells (aequorin luminescence, FDSS7000, ACh EC20)
- Format: cell-based
- reported.conditions: test compound 10 μmol/L; ACh at EC20; ratio of RLU (Max-Min) of test-compound wells to control wells
measured.metric: α7PAM (%) @ 10 μmol/L

INSERT INTO assay_data (compound, target_or_system, result) VALUES
  ('CCOc1cccc2c1cnn2C1CCN(C(=O)N[C@H]2CC[C@@H](OC)CC2)CC1 [Example 184]', 'human α7 nAChR (Homo sapiens, UniProt P36544)', '200%'),
  ('O=C(Nc1ccc(C(F)(F)F)nc1)N1CCC(n2ncc3cc(C4CC4)ccc32)CC1 [Example 187]', 'human α7 nAChR (Homo sapiens, UniProt P36544)', '220%'),
  ('CCCc1ccc2c(cnn2C2CCN(C(=O)NC3CCC(OC)CC3)CC2)c1 (centres unmarked) [Example 76]', 'human α7 nAChR (Homo sapiens, UniProt P36544)', '420%'),
  ('CCc1ccc2c(cnn2C2CCN(C(=O)N[C@H]3CC[C@H](OC)CC3)CC2)c1 [Example 16]', 'human α7 nAChR (Homo sapiens, UniProt P36544)', '1764%'),
  ('COCCCc1ccc2c(cnn2C2CCN(C(=O)N[C@H]3CC[C@H](OC)CC3)CC2)c1 [Example 32]', 'human α7 nAChR (Homo sapiens, UniProt P36544)', '430%'),
  ('CCO[C@H]1CC[C@H](NC(=O)N2CCC(n3ncc4cc(C)ccc43)CC2)CC1 [Example 90]', 'human α7 nAChR (Homo sapiens, UniProt P36544)', '1467%'),
  ('CO[C@H]1CC[C@H](NC(=O)N2CCC(n3ncc4c(C)c(C)ccc43)CC2)CC1 [Example 225]', 'human α7 nAChR (Homo sapiens, UniProt P36544)', '480%'),
  ('COC1CCC(NC(=O)N2CCC(n3ncc4c(Br)cccc43)CC2)CC1 (centres unmarked) [Example 98]', 'human α7 nAChR (Homo sapiens, UniProt P36544)', '89%'),
  ('CO[C@H]1CC[C@H](NC(=O)N2CCC(n3ncc4cc(C)ccc43)CC2)CC1 [Example 1]', 'human α7 nAChR (Homo sapiens, UniProt P36544)', '1209%'),
  ('CO[C@H]1CC[C@H](NC(=O)N2CCC(n3ncc4cc(C5CC5)ccc43)CC2)CC1 [Example 74]', 'human α7 nAChR (Homo sapiens, UniProt P36544)', '1226%'),
  ('CCc1ccc2c(cnn2C2CCN(C(=O)NC3CCCOC3)CC2)c1 (centres unmarked) [Example 22]', 'human α7 nAChR (Homo sapiens, UniProt P36544)', '1425%'),
  ('CC(C)Oc1ccc2c(cnn2C2CCN(C(=O)NC3CCCCC3)CC2)c1 [Example 48]', 'human α7 nAChR (Homo sapiens, UniProt P36544)', '1202%'),
  ('Cc1ccc2c(cnn2C2CCN(C(=O)N[C@H]3CCCCC3(F)F)CC2)c1 [Example 79]', 'human α7 nAChR (Homo sapiens, UniProt P36544)', '1064%'),
  ('Cc1ccc2c(cnn2C2CCN(C(=O)NC3CCCCC3)CC2)c1 [Example 8]', 'human α7 nAChR (Homo sapiens, UniProt P36544)', '3053%'),
  ('COCc1nn(C2CCN(C(=O)NC3CCCCC3)CC2)c2ccc(C)cc12 [Example 68]', 'human α7 nAChR (Homo sapiens, UniProt P36544)', '430%'),
  ('O=C(NC1CCC(F)(F)CC1)N1CCC(n2ncc3c(OC(F)F)cccc32)CC1 [Example 201]', 'human α7 nAChR (Homo sapiens, UniProt P36544)', '370%'),
  ('CCc1ccc2c(cnn2[C@H]2CC[C@@H](NC(=O)NC3CCC(F)(F)CC3)CC2)c1 [Example 5]', 'human α7 nAChR (Homo sapiens, UniProt P36544)', '1368%'),
  ('CCc1ccc2c(cnn2[C@H]2CC[C@@H](NC(=O)[C@H]3CC[C@H](OC)CC3)CC2)c1 [Example 122]', 'human α7 nAChR (Homo sapiens, UniProt P36544)', '410%'),
  ('CCc1cccc2c1cnn2C1CCN(C(=O)NC2CCC(F)(F)CC2)CC1 [Example 64]', 'human α7 nAChR (Homo sapiens, UniProt P36544)', '1133%'),
  ('CCc1ccc2c(cnn2C2CCN(C(=O)NC3CCOCC3)CC2)c1OC [Example 275]', 'human α7 nAChR (Homo sapiens, UniProt P36544)', '1093%'),
  ('COC(C)c1c(C)ccc2c1cnn2C1CCN(C(=O)NC2CCC(F)(F)CC2)CC1 (centres unmarked) [Example 232]', 'human α7 nAChR (Homo sapiens, UniProt P36544)', '860%'),
  ('Cc1ccc2c(cnn2C2CCN(C(=O)NC3CCC(F)(F)CC3)CC2)c1 [Example 13]', 'human α7 nAChR (Homo sapiens, UniProt P36544)', '3399%'),
  ('O=C(NC1CCOCC1)N1CCC(n2ncc3cc(C(F)(F)F)ccc32)CC1 [Example 297]', 'human α7 nAChR (Homo sapiens, UniProt P36544)', '340%'),
  ('CCc1ccc2c(cnn2C2CCN(C(=O)C3CCOCC3)CC2)c1 [Example 111]', 'human α7 nAChR (Homo sapiens, UniProt P36544)', '410%'),
  ('CO[C@H]1CC[C@H](NC(=O)N2CCC(n3ncc4cc(OC(F)F)ccc43)CC2)CC1 [Example 291]', 'human α7 nAChR (Homo sapiens, UniProt P36544)', '1433%'),
  ('O=C(NC1CCC(F)(F)CC1)N1CCC(n2ncc3cc(OC4CC4)ccc32)CC1 [Example 249]', 'human α7 nAChR (Homo sapiens, UniProt P36544)', '1463%'),
  ('Cc1ccc2c(cnn2C2CCN(C(=O)N[C@H]3CCCC3(F)F)CC2)c1 [Example 80]', 'human α7 nAChR (Homo sapiens, UniProt P36544)', '1033%'),
  ('Cc1ccc2c(cnn2C2CCN(C(=O)NC3CCC(OCC(F)(F)F)CC3)CC2)c1 (centres unmarked) [Example 83]', 'human α7 nAChR (Homo sapiens, UniProt P36544)', '420%'),
  ('CCc1ccc2c(cnn2C2CCN(C(=O)N[C@H]3CC[C@H](OC)CC3)CC2)c1OC [Example 255]', 'human α7 nAChR (Homo sapiens, UniProt P36544)', '1096%'),
  ('CCCc1ccc2c(cnn2C2CCN(C(=O)NC3CCOCC3)CC2)c1 [Example 15]', 'human α7 nAChR (Homo sapiens, UniProt P36544)', '1025%'),
  ('COc1ccc2c(cnn2C2CCN(C(=O)NC3CCC(F)(F)CC3)CC2)c1 [Example 41]', 'human α7 nAChR (Homo sapiens, UniProt P36544)', '3749%'),
  ('COCc1c(C)ccc2c1cnn2C1CCN(C(=O)NC2CCC(F)(F)CC2)CC1 [Example 213]', 'human α7 nAChR (Homo sapiens, UniProt P36544)', '800%'),
  ('CO[C@H]1CCC[C@H](NC(=O)N2CCC(n3ncc4cc(C5CC5)ccc43)CC2)C1 [Example 211]', 'human α7 nAChR (Homo sapiens, UniProt P36544)', '1034%'),
  ('O=C(NC1CCOCC1)N1CCC(n2ncc3c(OC(F)(F)F)cccc32)CC1 [Example 304]', 'human α7 nAChR (Homo sapiens, UniProt P36544)', '380%'),
  ('COc1c(C(F)(F)F)ccc2c1cnn2C1CCN(C(=O)NC2CCC(OC)CC2)CC1 (centres unmarked) [Example 317]', 'human α7 nAChR (Homo sapiens, UniProt P36544)', '360%');
